The entries below are paired with their reported efficacy.
system: HCT116; experiment: efficacy (fitted maximal change in viability relative to DMSO control); higher = less cytotoxic (negative = loss of viability); details: 48 h
Express the result in % but write the number alone.

Examples from the recorded data:
{"MOLECULE": "CCCC\\1=C(/CNC(=O)C2=CC(=CC3=C2C=N[N]3C(C)C)C4=CC=C(N=C4)N5CCN(CC5)C(C)C)C(=O)NC(=C1)\\C", "efficacy / %": -25.5}
{"MOLECULE": "N#Cc1ccnc(N2C(=O)CC[C@H]2C(=O)N(c2cncc(F)c2)C(C(=O)NC2CC(F)(F)C2)c2ccccc2Cl)c1 (some centres not stated)", "efficacy / %": -22.2}
{"MOLECULE": "CC1(C)NC(=O)N(c2ccc([N+](=O)[O-])c(C(F)(F)F)c2)C1=O [Nilutamide]", "efficacy / %": -35.5}
{"MOLECULE": "N[S+](=O)([O-])c1ccc(NC(=S)N2CCN(C/C=C/c3ccccc3)CC2)cc1", "efficacy / %": -42.2}
{"MOLECULE": "CN1CC(=O)\\N=C1\\NC(=O)NC2=CC(=CC=C2)Cl", "efficacy / %": 5.7}
{"MOLECULE": "COCCCOc1ccnc(CS(=O)c2nc3ccccc3[n-]2)c1C.[Na+] (configuration not stated)", "efficacy / %": -43.4}

IN: Record request: efficacy value, item `Cc1[nH]c(/C=C2\C(=O)Nc3ccc([S+](=O)([O-])N(C)c4cccc(Cl)c4)cc32)c(C)c1C(=O)N1CCN(C)CC1`
OUT: -113

###

tested on: HCT116; assay: efficacy (fitted maximal change in viability relative to DMSO control); higher = less cytotoxic (negative = loss of viability); conditions: 48 h
Counter-ions that a name gives are not always drawn.
The entries below are paired with their reported efficacy.
Express the result in % but write the number alone.

Examples from the recorded data:
{"COMPOUND": "C#C[C@]1(O)CC[C@H]2[C@@H]3CCc4cc(O)ccc4[C@H]3CC[C@@]21C [Ethinylestradiol]", "efficacy / %": -54.2}
{"COMPOUND": "COc1ccc(/C=C/C(=O)Nc2ccccc2C(=O)O)cc1OC [Tranilast]", "efficacy / %": -8.29}

IN: Record request: efficacy value, item OC1=CC2=C(C(=C1)O)C(=O)\C=C(/O2)C3=CC=CC=C3 [Chrysine]
OUT: -49.1

IN: Record request: efficacy value, item C=CC(=O)N1CC[C@@H](Oc2nc(Nc3ccc(N4CCC(N5CCN(C)CC5)CC4)cc3)c(C(N)=O)nc2CC)C1 [Naquotinib mesylate]
OUT: -103

###

system: HCT116; assay: efficacy (fitted maximal change in viability relative to DMSO control); higher = less cytotoxic (negative = loss of viability); conditions: 48 h
PARAMETER MEASURED: efficacy
Units required after the number.

Examples from the recorded data:
{"COMPOUND": "NC/1=N/C(=O)N(/C=C1)[C@@H]2O[C@H](CO)[C@@H](O)C2(F)F [Gemcitabine]", "PARAMETER MEASURED": "efficacy", "MEAS VALUE": "-71.9%"}
{"COMPOUND": "NC(=O)Nc1cc(-c2ccc(CN3CCOCC3)cc2)sc1C(N)=O [AZ-TAK1 Inhibitor]", "PARAMETER MEASURED": "efficacy", "MEAS VALUE": "-71%"}

IN: Record request: efficacy value, item O=C(Nc1ncc(-c2cc(C(F)F)nn2-c2c(Cl)cccc2Cl)s1)C1CC1 [BMS-3]
OUT: -68%

###

system: HCT116; experiment: AC50 cell viability (CellTiter-Glo); higher = less potent; details: 48 h
Note to self: use Condition met only for AC50 cell viability readings below 5 µM; a reading exactly at 5 µM still gets Condition not met.

Solved entries (count: 3):
{"MOLECULE": "Cc1cc(I)ccc1Nc1c(C(=O)NOCC2CC2)cc(F)c(F)c1F", "DISCRETE LABEL": "Condition met"}
{"MOLECULE": "COC1=CC(c2cc3ccccc3[nH]2)=N/C1=C/c1[nH]c(C)cc1C", "DISCRETE LABEL": "Condition met"}
{"MOLECULE": "CCN(CC)CCNC(=O)c1c(C)[nH]c(/C=C2/C(=O)Nc3ccc(-c4csc(-c5ccccc5)n4)cc32)c1C", "DISCRETE LABEL": "Condition not met"}

Now let's try a different one.
IN: Field: below-cutoff. Rule: recorded AC50 cell viability strictly less than 5 µM. Subject: `C[C@@H](N)c1ccc(C(=O)Nc2ccnc3[nH]ccc23)cc1`
OUT: Condition met

###

tested on: HCT116; test: AC50 cell viability (CellTiter-Glo); higher = less potent; settings: 48 h
PARAMETER MEASURED: AC50 cell viability (µM)
Express the result in µM but write the number alone.

IN: Record request: AC50 cell viability value, item `Cc1c(C(=O)N2CCOc3ccc(-c4ccc(N)nc4)cc3C2)ccc([S+](C)(=O)[O-])c1F`
OUT: 10.5

IN: Record request: AC50 cell viability value, item `O=C(Nc1cc(C(F)(F)F)cc(C(F)(F)F)c1)c1cc(Cl)ccc1O`
OUT: 0.833

IN: Record request: AC50 cell viability value, item `CC(=O)Nc1nc(C)c(-c2ccc(Cl)c([S+](=O)([O-])NCCO)c2)s1`
OUT: 8.33

###

tested on: HCT116; experiment: efficacy (fitted maximal change in viability relative to DMSO control); higher = less cytotoxic (negative = loss of viability); conditions: 48 h
Where a name gives a salt, the structure may show the parent alone.
Use Yes when the recorded efficacy is no lower than -30%; use No when it is lower.

Solved entries (count: 5):
{"COMPOUND": "Nc1ccccc1NC(=O)c1ccc(CNC(=O)OCc2cccnc2)cc1 [Entinostat]", "DISCRETE LABEL": "No"}
{"COMPOUND": "NCCCC(N)(C(=O)O)C(F)F (stereo unspecified) [Eflornithine Hydrochloride]", "DISCRETE LABEL": "Yes"}
{"COMPOUND": "CNCCCOc1cc(F)c(-c2c(Cl)nc3ncnn3c2N[C@@H](C)C(F)(F)F)c(F)c1 [Cevipabulin]", "DISCRETE LABEL": "No"}
{"COMPOUND": "CN(C(=O)c1ccc(F)cc1C(F)(F)F)C1CCN(c2nnc(-c3ccnn3C)c3ccccc23)CC1 [Taladegib]", "DISCRETE LABEL": "Yes"}
{"COMPOUND": "CCc1cc(-c2n[nH]c(C)c2-c2ccc3c(c2)OCCO3)c(O)cc1O", "DISCRETE LABEL": "No"}

Now let's try a different one.
IN: Please indicate if the recorded efficacy for CNC(=O)[C@H](Cc1c[nH]c2ccccc12)NC(=O)[C@@H](CC(=O)NO)CC(C)C [Ilomastat (GM6001, Galardin)] meets or exceeds -30%.
OUT: Yes

###

The entries below are paired with their reported AC50 cell viability.
system: HCT116; assay: AC50 cell viability (CellTiter-Glo); higher = less potent; conditions: 48 h
Express the result in µM but write the number alone.

Examples from the recorded data:
{"MOLECULE": "CC[C@@H]([C@H](C)O)N1\\N=C/N(C1=O)C2=CC=C(C=C2)N3CCN(CC3)C4=CC=C(OCC5CO[C@@](C5)(C[N]6C=NC=N6)C7=C(F)C=C(F)C=C7)C=C4 (some centres undefined) [Posaconazole]", "AC50 cell viability / µM": 6.61}
{"MOLECULE": "Nc1nc2cc(-c3ccc4ncc(C(=O)N5CCOCC5)n4c3)ccc2o1 [Serabelisib]", "AC50 cell viability / µM": 4.68}
{"MOLECULE": "C[C@@H](NCc1cc2ccccc2[nH]1)c1cccc2ccccc12 [Calindol]", "AC50 cell viability / µM": 13.2}
{"MOLECULE": "FC(F)c1nc2ccccc2n1-c1nc(N2CCOCC2)nc(N2CCOCC2)n1 [ZSTK-474]", "AC50 cell viability / µM": 0.742}
{"MOLECULE": "CC(C)NC(=O)[C@H]1CC[C@@H](n2c(NC(=O)c3ccc(F)cc3)nc3ccc(CN4CCC(C(C)(C)O)CC4)cc32)CC1 [Belizatinib]", "AC50 cell viability / µM": 7.23}

IN: Record request: AC50 cell viability value, item NCCCN([C@H](CC#C)C/1=N/C2=C(C=CC(=C2)Cl)C(=O)N1NC3=CC=CC=C3)C(=O)C4=CC=CC(=C4F)Cl [ARQ-621]
OUT: 0.468

IN: Record request: AC50 cell viability value, item COc1ccc(F)c(F)c1C(=O)c1cnc(NC2CCN([S+](C)(=O)[O-])CC2)nc1N [R-547]
OUT: 0.417

IN: Record request: AC50 cell viability value, item CC(=O)Nc1cc(Oc2ccc3c(nc(Nc4ccc(F)cc4F)n3C)c2C)ccn1 [CHZ868]
OUT: 0.833

IN: Record request: AC50 cell viability value, item Nc1ncccc1-c1nc2ccc(-c3ccccc3)nc2n1-c1ccc(C2(N)CCC2)cc1 [Miransertib]
OUT: 14.8

The measurements presented in this section are drawn from the supplement of paper PMC10290057.
